- Test target: DNMT1 (Homo sapiens, UniProt P26358 P26358:1-1616)
- Sequence (P26358 whole entry, one chain of several): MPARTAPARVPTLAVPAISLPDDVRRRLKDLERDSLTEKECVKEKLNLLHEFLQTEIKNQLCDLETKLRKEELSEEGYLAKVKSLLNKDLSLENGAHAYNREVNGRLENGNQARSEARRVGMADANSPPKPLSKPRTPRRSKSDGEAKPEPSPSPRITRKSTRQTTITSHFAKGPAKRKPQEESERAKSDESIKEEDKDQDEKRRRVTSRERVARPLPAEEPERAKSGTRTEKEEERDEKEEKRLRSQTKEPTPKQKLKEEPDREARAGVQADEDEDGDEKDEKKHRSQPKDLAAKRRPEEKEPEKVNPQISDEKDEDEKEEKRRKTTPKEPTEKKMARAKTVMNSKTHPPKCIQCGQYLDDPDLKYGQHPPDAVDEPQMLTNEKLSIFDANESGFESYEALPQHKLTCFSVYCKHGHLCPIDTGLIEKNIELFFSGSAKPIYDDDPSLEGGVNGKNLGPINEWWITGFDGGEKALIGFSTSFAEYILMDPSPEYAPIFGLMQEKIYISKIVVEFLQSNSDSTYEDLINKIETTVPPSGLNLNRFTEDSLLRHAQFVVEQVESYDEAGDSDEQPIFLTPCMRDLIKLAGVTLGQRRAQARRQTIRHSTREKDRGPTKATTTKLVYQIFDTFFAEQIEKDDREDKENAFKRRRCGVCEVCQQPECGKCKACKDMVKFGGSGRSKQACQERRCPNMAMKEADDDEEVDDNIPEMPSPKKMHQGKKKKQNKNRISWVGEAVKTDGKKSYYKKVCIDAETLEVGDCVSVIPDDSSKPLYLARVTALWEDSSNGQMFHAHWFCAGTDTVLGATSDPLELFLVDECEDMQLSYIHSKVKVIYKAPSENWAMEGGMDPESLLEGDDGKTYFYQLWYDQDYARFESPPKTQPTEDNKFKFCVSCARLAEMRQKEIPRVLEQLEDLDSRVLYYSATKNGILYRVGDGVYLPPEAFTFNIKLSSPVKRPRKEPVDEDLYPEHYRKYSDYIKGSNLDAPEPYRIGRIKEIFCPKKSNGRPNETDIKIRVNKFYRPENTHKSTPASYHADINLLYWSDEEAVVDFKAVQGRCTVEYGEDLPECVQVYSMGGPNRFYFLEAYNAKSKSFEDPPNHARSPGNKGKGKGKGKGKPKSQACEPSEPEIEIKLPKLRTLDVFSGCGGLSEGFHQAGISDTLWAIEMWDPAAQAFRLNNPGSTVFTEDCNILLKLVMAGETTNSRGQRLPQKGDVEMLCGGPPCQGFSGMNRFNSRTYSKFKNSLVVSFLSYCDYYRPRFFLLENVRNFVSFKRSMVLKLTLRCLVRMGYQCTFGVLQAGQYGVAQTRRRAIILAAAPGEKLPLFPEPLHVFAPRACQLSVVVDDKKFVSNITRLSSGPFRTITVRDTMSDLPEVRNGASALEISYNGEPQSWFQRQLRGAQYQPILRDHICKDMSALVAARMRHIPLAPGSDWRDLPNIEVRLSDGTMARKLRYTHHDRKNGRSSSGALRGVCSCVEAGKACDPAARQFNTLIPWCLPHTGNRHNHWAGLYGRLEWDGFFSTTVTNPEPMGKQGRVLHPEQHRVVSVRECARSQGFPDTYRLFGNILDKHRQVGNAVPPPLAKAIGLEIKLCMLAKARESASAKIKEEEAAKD
- Assay remarks: inhibition; 25 nM DNMT1, poly(dI:dC) substrate, 1 uM SAM; Table 5 gives 348 nM
- Measurement conditions: hairpin
Value type: IC50

Briefly, IC50 measured for CCTATGCGATCGAGTTTTCTCGATCGCATAGG (structured_DNA, zebularine (pyrimidin-2-one ribonucleoside) at 21 and 25; phosphodiester [21,25]) [MTC-423] : 363 nM
